# Tested on: P388 leukemia ip, CD2F1 mice, survival T/C
# EXPERIMENT NOTES: NCI In Vivo Anticancer Drug Screen. Data for tumor model P388 Leukemia (intraperitoneal) in CD2F1 (CDF1) mice
# CONDITION DETAILS: endpoint: median survival time; dose: 50.0 mg/kg/injection; schedule: Q01DX005 (ip); vehicle: distilled water + alcohol; higher = longer survival
Inconclusive results and toxic doses are left out.
Measured T/C by item

Observe how each entry below is paired with its result.
Nc1ncnc2c1ccn2CC(O)CO (centres undefined) :: 101 % of control
CCCCOc1cc2c(cc1C(C)c1ccc(OC)cc1)OCO2 (centres undefined) :: 96 % of control
CN(C)c1ncnc2c1ncn2CC(O)CN (centres undefined) :: 100 % of control

Note: attention shifts to another entry.
Ask: Any idea what T/C was measured for COc1ccc(Cc2cc(C(C)(C)C)c(O)c(C(C)(C)C)c2)cc1 ?
Result: 104 % of control

----------
# Tested on: P388 leukemia ip, CD2F1 mice, survival T/C
# EXPERIMENT NOTES: NCI In Vivo Anticancer Drug Screen. Data for tumor model P388 Leukemia (intraperitoneal) in CD2F1 (CDF1) mice
# CONDITION DETAILS: endpoint: median survival time; dose: 200.0 mg/kg/injection; schedule: Q01DX005 (ip); vehicle: saline; higher = longer survival
Inconclusive results and toxic doses are left out.
ENDPOINT LABEL: T/C

Ask: Any idea what T/C was measured for Cc1c(O)c(=O)ccn1C1OC(CO)C(O)C1O (configuration not stated) ?
Result: 104 % of control

Ask: Any idea what T/C was measured for CCN(CC)CCNC(=O)CCC(=O)O ?
Result: 100 % of control

Ask: Any idea what T/C was measured for NNC(=O)NN1C(=O)c2cc(S(=O)(=O)O)cc3c(N)c(S(=O)(=O)O)cc(c23)C1=O ?
Result: 99 % of control

Ask: Any idea what T/C was measured for O=CN(CCO)CCO ?
Result: 114 % of control

----------
# Tested on: P388 leukemia ip, CD2F1 mice, survival T/C
# EXPERIMENT NOTES: NCI In Vivo Anticancer Drug Screen. Data for tumor model P388 Leukemia (intraperitoneal) in CD2F1 (CDF1) mice
# CONDITION DETAILS: endpoint: median survival time; dose: 25.0 mg/kg/injection; schedule: Q01DX005 (ip); vehicle: saline with Tween-80; higher = longer survival
Toxic doses and inconclusive results are not listed.
ENDPOINT LABEL: T/C

Observe how each entry below is paired with its result.
COc1cc(/C=N/N2CC(=O)N(c3ccccc3)CC2=O)cc(OC)c1 :: 100 % of control
CN1CCC2(CC1)OCCCO2 :: 102 % of control
[O-][n+]1c(Cl)c(Cl)[n+]([O-])c2[nH]c(C(F)(F)F)nc21 :: 103 % of control
NC(=S)N/N=C1/C(=O)N(C2CCCCCC2)C(=O)C1C(=O)NC1CCCCCC1 (centres undefined) :: 99 % of control

Ask: Give T/C (P388 leukemia ip, CD2F1 mice, survival T/C) of the following molecule: COc1ccc(-c2c(N3CCOCC3)oc3cc(N4CCOCC4)c(O)cc23)cc1
Result: 100 % of control

Ask: Give T/C (P388 leukemia ip, CD2F1 mice, survival T/C) of the following molecule: CCN(CC)CCC(CNc1c2ccc(Cl)cc2nc2ccc(OC)cc12)c1ccccc1 (centres undefined)
Result: 100 % of control

Ask: Give T/C (P388 leukemia ip, CD2F1 mice, survival T/C) of the following molecule: C/C(=N\NC(=O)c1ccncc1)c1cccc(/C(C)=N/NC(=O)c2ccncc2)n1.CC(=O)[O-].CC(=O)[O-].[Zn+2]
Result: 104 % of control

Ask: Give T/C (P388 leukemia ip, CD2F1 mice, survival T/C) of the following molecule: CCN(CC)CCN=c1nc(/C=C\C=C\NN(C)C(=S)SC)c(C)nn1C
Result: 89 % of control

Ask: Give T/C (P388 leukemia ip, CD2F1 mice, survival T/C) of the following molecule: CC1CCCN(CC(O)CN2C[C@@H](C)N(CC(O)CN3CCCC(C)C3)[C@H](C)C2)C1 (some centres undefined)
Result: 100 % of control

Ask: Give T/C (P388 leukemia ip, CD2F1 mice, survival T/C) of the following molecule: Brc1ccc(-c2cnc3nc4[nH]c5ccccc5c4nn23)cc1
Result: 93 % of control

Ask: Give T/C (P388 leukemia ip, CD2F1 mice, survival T/C) of the following molecule: OC(CCl)Cn1nnc2c3ccccc3ccc21 (centres undefined)
Result: 101 % of control

Ask: Give T/C (P388 leukemia ip, CD2F1 mice, survival T/C) of the following molecule: C/C(=N\NC(=S)N1CCCC1)c1cnccn1
Result: 100 % of control

Ask: Give T/C (P388 leukemia ip, CD2F1 mice, survival T/C) of the following molecule: COc1ccc2c(c1)n([O-])c1ccccc1[n+]2=O
Result: 122 % of control

Ask: Give T/C (P388 leukemia ip, CD2F1 mice, survival T/C) of the following molecule: CN(C)c1ccc2c(Cl)ccnc2c1
Result: 103 % of control
